self-splicing fitness (ln) values by entry
# protocol.notes: self-splicing fitness, log relative to wild type (ln ratio); higher = more splicing; Tetrahymena group I intron in knt gene, E. coli kanamycin selection, DiMSum; sequences stand for … in CUCUCU…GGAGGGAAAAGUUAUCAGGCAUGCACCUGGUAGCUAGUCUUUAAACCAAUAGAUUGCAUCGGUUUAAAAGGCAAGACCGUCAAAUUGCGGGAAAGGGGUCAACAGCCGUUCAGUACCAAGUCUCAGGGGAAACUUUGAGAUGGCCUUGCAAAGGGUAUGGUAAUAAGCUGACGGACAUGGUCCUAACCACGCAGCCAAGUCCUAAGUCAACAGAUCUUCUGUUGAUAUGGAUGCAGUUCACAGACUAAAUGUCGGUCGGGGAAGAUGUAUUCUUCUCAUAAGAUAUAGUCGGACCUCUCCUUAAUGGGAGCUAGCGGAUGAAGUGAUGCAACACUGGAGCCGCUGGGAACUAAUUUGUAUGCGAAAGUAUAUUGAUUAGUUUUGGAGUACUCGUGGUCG;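 note: selection with 25 µg/mL kanamycin versus none on LB agar overnight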
# run.parameters: 30 °C
// print number alone

chain.sequence	self-splicing fitness (ln)
CACAAGCAAUAUUACGGCAC	-2.95
UAAAAGCAAUAUUACGCUGU	-3.01
CCUGAGCAAUAUUACGAGUA	-2.98

Consider now this further sequence.
Query (sequence): GAGAAGCAAUAUUACGGGGU ; field requested: self-splicing fitness (ln)
-3.06
